# credit: patent US11566007B2

I'd appreciate it if you could supply IC50 values for the items below.
- TGT: K-Ras G12C (Homo sapiens (Human), UniProt P01116+P62937, G12C)
- Sequence (P01116-2 other isoform, or with tags, fused parts or gaps G12C): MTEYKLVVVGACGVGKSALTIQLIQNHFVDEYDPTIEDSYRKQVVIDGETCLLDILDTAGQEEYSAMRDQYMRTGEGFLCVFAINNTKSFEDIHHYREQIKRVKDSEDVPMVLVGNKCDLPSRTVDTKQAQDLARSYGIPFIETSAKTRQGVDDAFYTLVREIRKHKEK
- Sequence (P62937 whole entry): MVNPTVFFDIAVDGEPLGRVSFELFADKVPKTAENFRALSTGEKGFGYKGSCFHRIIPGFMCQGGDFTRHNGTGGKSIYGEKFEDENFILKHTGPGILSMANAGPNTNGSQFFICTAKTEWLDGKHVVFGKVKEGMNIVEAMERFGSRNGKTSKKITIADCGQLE
- EXPERIMENT_NOTES: Ras-Raf (BRAF RBD) disruption / FRET / MOA assay, KRAS G12C
- Assay type: biochemical
- EXPERIMENTAL_CONDITIONS: KRAS G12C; Ras-Raf disruption/FRET/MOA assay; read-out: IC50* KRAS G12C FRET data

[ask] Recall and state the measured IC50 for C=CC(=O)N1C[C@@H](C)N(C(=O)N(C)[C@H](C(=O)N[C@H]2Cc3nc(cs3)-c3ccc4c(c3)c(c(-c3cccnc3[C@H](C)OC)n4CC)CC(C)(C)COC(=O)[C@@H]3CCCN(N3)C2=O)C(C)C)[C@@H](C)C1 (atropisomer, axis not shown) .
[reply] 10 to 100 nM

[ask] Name the recorded IC50 of the item CCn1c(-c2cccnc2[C@H](C)OC)c2c3cc(ccc31)-c1cccc(c1)C[C@H](NC(=O)[C@H](C(C)C)N1CO[C@@]3(CCN(C(=O)/C=C/CN(C)C)C3)C1=O)C(=O)N1CCC[C@H](N1)C(=O)OCC(C)(C)C2 (atropisomer, axis not shown) in your answer.
[reply] 10 to 100 nM

[ask] Please indicate IC50 recorded for CCn1c(-c2cccnc2[C@H](C)OC)c2c3cc(ccc31)-c1csc(n1)C[C@H](NC(=O)[C@H](C(C)C)N1CC[C@@]3(CCN(C(=O)C#CC(C)(C)N(C)C)C3)C1=O)C(=O)N1CCC[C@H](N1)C(=O)OCC(C)(C)C2 (single isomer, unassigned)
[reply] < 10 nM

[ask] Supply recorded IC50 for CC#CC(=O)N1CC[C@H](C(=O)N(C)[C@H](C(=O)N[C@H]2Cc3nc(ns3)-c3ccc4c(c3)c(c(-c3cccnc3[C@H](C)OC)n4CC)CC(C)(C)COC(=O)[C@@H]3CCCN(N3)C2=O)C(C)C)C1 (atropisomer, axis not shown) here.
[reply] 1000 to 10000 nM

[ask] Please give measured IC50 of the following entry: `C=CC(=O)N1CCO[C@H]2CN(C(=O)N(C)[C@H](C(=O)N[C@H]3C[C@H]4CN(CCO4)c4ccc5c(c4)c(c(-c4cccnc4[C@H](C)OC)n5CC)CC(C)(C)COC(=O)[C@@H]4CCCN(N4)C3=O)C(C)C)C[C@H]21`
[reply] 100 to 1000 nM

[ask] Supply IC50 value. Item: `CCn1c(-c2cccnc2[C@H](C)OC)c2c3cc(ccc31)-c1cccc(c1)C[C@H](NC(=O)[C@H](C(C)C)N(C)C(=O)[C@H]1CCN(C(=O)/C=C/CF)C1)C(=O)N1CCC[C@H](N1)C(=O)OCC(C)(C)C2`
[reply] 100 to 1000 nM

[ask] Supply recorded IC50 for CCn1c(-c2cccnc2[C@H](C)OC)c2c3cc(ccc31)N1CCO[C@@H](C[C@H](NC(=O)[C@H](C(C)C)N(C)C(=O)C3(F)CCN(C(=O)/C=C/CN(C)C)CC3)C(=O)N3CCC[C@H](N3)C(=O)OCC(C)(C)C2)C1 (atropisomer, axis not shown) here.
[reply] 10 to 100 nM

[ask] Return the recorded IC50 value; entry: C=CC(=O)N1CC2(CCCN2C(=O)N(C)[C@H](C(=O)N[C@H]2Cc3nc(cs3)-c3ccc4c(c3)c(c(-c3cccnc3[C@H](C)OC)n4CC)CC(C)(C)COC(=O)[C@@H]3CCCN(N3)C2=O)C(C)C)C1 (atropisomer, axis not shown)
[reply] < 10 nM

====

- TGT: KRAS WT (Homo sapiens (Human), UniProt P01116+P62937)
- Sequence (P01116-2 other isoform, or with tags, fused parts or gaps, one chain of several): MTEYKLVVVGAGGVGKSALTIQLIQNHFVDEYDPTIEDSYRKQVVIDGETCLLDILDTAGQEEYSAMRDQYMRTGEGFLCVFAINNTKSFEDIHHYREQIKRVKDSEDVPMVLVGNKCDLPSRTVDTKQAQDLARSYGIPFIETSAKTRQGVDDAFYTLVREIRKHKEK
- EXPERIMENT_NOTES: Ras-Raf (BRAF RBD) disruption / FRET / MOA assay, KRAS WT
- Type: biochemical
- EXPERIMENTAL_CONDITIONS: read-out: IC50* KRAS WT FRET data
pIC50: −log10 of the molar value.
VALUE_TYPE: pIC50

[ask] Consider the molecule `C=CC(=O)N1CC[C@H](C(=O)N(C)[C@H](C(=O)N[C@@H]2C(=O)N3CCC[C@H](N3)C(=O)OCC(C)(C)Cc3c(-c4cncnc4)n(CC)c4ccc(cc34)-c3cccc(c3)[C@@H]2OC)C(C)C)C1` . State its measured pIC50.
[reply] < 5.00

[ask] Read the entry CCn1c(-c2cccnc2[C@H](C)OC)c2c3cc(ccc31)-c1cccc(c1)C[C@H](NC(=O)[C@H](C(C)C)N1CO[C@]3(CCN(C(=O)C#CC(C)(C)N4CCC4)C3)C1=O)C(=O)N1CCC[C@H](N1)C(=O)OCC(C)(C)C2 (atropisomer, axis not shown) and write its reported pIC50.
[reply] 6.00 to 7.00

[ask] Complete the entry with pIC50 for `C=CC(=O)N1CC[C@H](C(=O)N(C)[C@H](C(=O)N(C)[C@H]2Cc3cc(O)cc(c3)-c3ccc4c(c3)c(c(-c3cccnc3COC)n4CC)CC(C)(C)COC(=O)[C@@H]3CCCN(N3)C2=O)C(C)C)C1`
[reply] < 5.00

[ask] Fill in reported pIC50 for this entry: CO[C@@H](C)c1ncccc1-c1c2c3cc(ccc3n1CC(F)(F)F)-c1cc(cc(C(F)F)c1)C[C@H](NC(=O)[C@H](C(C)C)N(C)C(=O)[C@H]1CCN(C(=O)C#CC(C)(C)N3CCC3)C1)C(=O)N1CCC[C@H](N1)C(=O)OCC(C)(C)C2 (atropisomer, axis not shown)
[reply] 5.00 to 6.00

[ask] Report pIC50, nothing else, for this molecule: CCn1c(-c2cccnc2[C@H](C)OC)c2c3cc(ccc31)-c1cccc(c1)C[C@H](NC(=O)[C@H](C(C)C)N(C)C(=O)[C@H]1CCN(C(=O)C#CC3(N(C)C)CN(C)C3)C1)C(=O)N1CCC[C@H](N1)C(=O)OCC(C)(C)C2 (atropisomer, axis not shown)
[reply] 5.00 to 6.00

[ask] Could you please provide reported pIC50 for C=CC(=O)N1CC[C@H](C(=O)N2CCCCC[C@H]2C(=O)N[C@H]2Cc3nc(cs3)-c3ccc4c(c3)c(c(-c3cccnc3[C@H](C)OC)n4CC)CC(C)(C)COC(=O)[C@@H]3CCCN(N3)C2=O)C1 (atropisomer, axis not shown) ? Thanks!
[reply] 5.00 to 6.00

[ask] Write down pIC50 measured for item `C=CC(=O)N1CC[C@H](C(=O)N(C)[C@H](C(=O)N[C@H]2Cc3cc(O)cc(c3)-c3ccc4c(c3)c(c(-c3csc(N(C)C)n3)n4CC)CC(C)(C)COC(=O)[C@@H]3CCCN(N3)C2=O)C(C)C)C1`
[reply] < 5.00

[ask] Determine its reported pIC50: `C=CC(=O)N1CC[C@H](C(=O)N(C)[C@H](C(=O)N[C@H]2Cc3cccc(c3)-c3ccc4c(c3)c(c(-c3cnn(C5CCN(C)CC5)c3[C@H](C)OC)n4CC)CC(C)(C)COC(=O)[C@@H]3CCCN(N3)C2=O)C(C)C)C1`
[reply] < 5.00

====

- TGT: KRAS WT (Homo sapiens (Human), UniProt P01116+P62937)
- EXPERIMENT_NOTES: Ras-Raf (BRAF RBD) disruption / FRET / MOA assay, KRAS WT
- Format: biochemical
- EXPERIMENTAL_CONDITIONS: read-out: IC50* KRAS WT FRET data
pIC50: −log10 of the molar value.
VALUE_TYPE: pIC50

[ask] Give recorded pIC50. C=CC(=O)NC1CN(C(=O)N(C)[C@H](C(=O)N[C@H]2Cc3nc(cs3)-c3ccc4c(c3)c(c(-c3cccnc3[C@H](C)OC)n4CC)CC(C)(C)COC(=O)[C@@H]3CCCN(N3)C2=O)C(C)C)C1 (atropisomer, axis not shown)
[reply] 6.00 to 7.00

[ask] Return pIC50 for the following compound: `CCn1c(-c2cncnc2)c2c3cc(ccc31)-c1cccc(c1)[C@@H](OC)[C@H](NC(=O)[C@H](C(C)C)N(C)C(=O)[C@H]1CCN(C(=O)C#CCN3CCOCC3)C1)C(=O)N1CCC[C@H](N1)C(=O)OCC(C)(C)C2`
[reply] < 5.00

[ask] Read off the recorded pIC50 for CC#CC(=O)N1CC[C@@H](C(=O)N(C)[C@H](C(=O)N[C@H]2Cc3cccc(c3)-c3ccc4c(c3)c(c(-c3cccnc3[C@H](C)OC)n4CC)CC(C)(C)COC(=O)[C@@H]3CCCN(N3)C2=O)C(C)C)C1 (atropisomer, axis not shown)
[reply] 5.00 to 6.00

[ask] Annotate the compound CCn1c(-c2cccnc2[C@H](C)OC)c2c3cc(ccc31)-c1csc(n1)C[C@H](NC(=O)[C@H](C(C)C)N1CCC3(CCN(C(=O)C#CC(C)(C)N(C)C)CC3)C1=O)C(=O)N1CCC[C@H](N1)C(=O)OCC(C)(C)C2 (atropisomer, axis not shown) with its measured pIC50.
[reply] < 5.00
